Values compiled from patent US11597706B2.

Target: hNLRP3 (THP-1, IL-1β) (Homo sapiens, UniProt Q96P20)
Construct: THP-1 cells were purchased from the American Type Culture Collection; host or cells: THP-1 cells, PMA-differentiated, stimulated with gramicidin
Sequence (Q96P20 whole entry): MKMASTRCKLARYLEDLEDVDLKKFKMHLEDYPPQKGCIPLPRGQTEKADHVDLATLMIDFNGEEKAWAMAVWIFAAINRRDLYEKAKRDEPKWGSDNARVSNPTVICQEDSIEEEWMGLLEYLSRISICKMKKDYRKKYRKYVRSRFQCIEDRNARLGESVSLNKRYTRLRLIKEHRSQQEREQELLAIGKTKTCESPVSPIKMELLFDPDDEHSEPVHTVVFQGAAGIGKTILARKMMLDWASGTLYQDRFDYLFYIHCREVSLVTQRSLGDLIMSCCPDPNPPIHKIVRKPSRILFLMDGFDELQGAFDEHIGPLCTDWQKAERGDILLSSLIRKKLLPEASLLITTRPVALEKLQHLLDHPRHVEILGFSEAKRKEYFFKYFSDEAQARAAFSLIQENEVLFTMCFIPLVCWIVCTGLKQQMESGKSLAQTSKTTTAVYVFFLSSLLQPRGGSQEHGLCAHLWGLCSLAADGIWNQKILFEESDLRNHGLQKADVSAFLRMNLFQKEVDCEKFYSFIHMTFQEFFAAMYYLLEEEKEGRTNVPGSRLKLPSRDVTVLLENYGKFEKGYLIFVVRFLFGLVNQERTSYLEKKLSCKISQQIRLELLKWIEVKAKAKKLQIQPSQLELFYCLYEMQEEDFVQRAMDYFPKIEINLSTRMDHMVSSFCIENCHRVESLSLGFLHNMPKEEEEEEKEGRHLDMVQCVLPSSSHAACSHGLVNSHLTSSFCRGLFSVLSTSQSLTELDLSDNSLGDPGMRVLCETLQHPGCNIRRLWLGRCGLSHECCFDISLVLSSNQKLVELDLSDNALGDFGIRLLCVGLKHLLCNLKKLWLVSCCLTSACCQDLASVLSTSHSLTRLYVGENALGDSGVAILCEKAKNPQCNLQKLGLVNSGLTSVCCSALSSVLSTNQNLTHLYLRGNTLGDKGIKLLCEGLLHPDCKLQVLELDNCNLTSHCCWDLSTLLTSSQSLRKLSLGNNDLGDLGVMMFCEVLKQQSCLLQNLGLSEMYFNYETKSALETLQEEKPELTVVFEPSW
Assay: IL-1β production in PMA-differentiated THP-1 cells stimulated with gramicidin
Assay type: cell-based
Details: Table 2, gramicidin 5 μM, IL-1β readout
measurement.label: IC50

Recorded IC50, per entry:
compound	IC50
COC(=O)c1ccc(F)c(S(=O)(=O)NC(=O)Nc2c(C(C)C)cc(Cl)cc2C(C)C)c1 [Compound 171]	1 to 5 µM
CC(C)c1ccc(F)c(C(C)C)c1NC(=O)NS(=O)(=O)c1cc(-c2ccncc2)cc(C(C)(C)O)c1 [Compound 159]	5 to 15 µM

[in] Fill blank: measured IC50 of the compound CC(C)(O)c1cc(-c2ccccc2)cc(S(=O)(=O)NC(=O)Nc2c3c(cc4c2CCC4)CCC3)c1 [Compound 151] is ____.
[out] 1 to 5 µM

[in] Next up: CC(C)c1cc(Cl)cc(C(C)C)c1NC(=O)NS(=O)(=O)c1cc(Cl)cc(C(C)(C)O)c1 [Compound 154]
[out] 1 to 5 µM

[in] // next record CC(C)c1cccc(C(C)C)c1NC(=O)NS(=O)(=O)c1ccc(C(C)(C)O)cc1 [Compound 169]
[out] 1 to 5 µM

---

Target: hNLRP3 (THP-1, IL-1β) (Homo sapiens)
Construct: THP-1 cells were purchased from the American Type Culture Collection; host or cells: THP-1 cells, PMA-differentiated, stimulated with gramicidin
Experiment: IL-1β production in PMA-differentiated THP-1 cells stimulated with gramicidin
Type: cell-based
Details: Table 2, gramicidin 5 μM, IL-1β readout
pIC50: −log10 of the molar value.
Below: a set of entries, each annotated with reported pIC50.

molecule	pIC50
CC(C)c1ccc(F)c(C(C)C)c1NC(=O)NS(=O)(=O)c1cccc(C(C)(C)O)c1 [Compound 141]	> 6.00
CC(C)c1ccc(F)c(C(C)C)c1NC(=O)NS(=O)(=O)c1ccc(C(C)(C)O)cc1 [Compound 170]	5.30 to 6.00

[in] I would be grateful if you could share the reported pIC50 for CC(C)(O)c1cc(C#N)cc(S(=O)(=O)NC(=O)Nc2c3c(cc4c2CCC4)CCC3)c1 [Compound 142] .
[out] > 6.00

[in] Next entry: CC(C)c1cc(C#N)cc(C(C)C)c1NC(=O)NS(=O)(=O)c1ccc(C(C)(C)O)cc1 [Compound 168]
[out] 5.30 to 6.00

---

Molecular target: hNLRP3 (THP-1, IL-1β) (Homo sapiens, UniProt Q96P20)
Construct: THP-1 cells were purchased from the American Type Culture Collection; host or cells: THP-1 cells, PMA-differentiated, stimulated with gramicidin
Experiment: IL-1β production in PMA-differentiated THP-1 cells stimulated with gramicidin
Format: cell-based
Settings: Table 2, gramicidin 5 μM, IL-1β readout
measurement.label: IC50

Answered cases to consult:
item.smiles	IC50
CC(C)c1ccc(F)c(C(C)C)c1NC(=O)NS(=O)(=O)c1cc(-c2ccccc2)cc(C(C)(C)O)c1	1000 to 5000 nM
COC(=O)c1cc(C(C)C)c(NC(=O)NS(=O)(=O)c2cccc(C(C)(C)O)c2)c(C(C)C)c1	5000 to 15000 nM
CC(C)(O)c1cc(C(C)(C)O)cc(S(=O)(=O)NC(=O)Nc2c3c(cc4c2CCC4)CCC3)c1	< 1000 nM
CC(C)c1cc(C#N)cc(C(C)C)c1NC(=O)NS(=O)(=O)c1cccc(C(C)(C)O)c1	< 1000 nM
CC(C)(O)c1ccc(S(=O)(=O)NC(=O)Nc2c3c(cc4c2CCC4)CCC3)cc1	< 1000 nM

[in] I would be grateful if you could share the reported IC50 for `CC(C)c1ccc(F)c(C(C)C)c1NC(=O)NS(=O)(=O)c1cc(N2CCOCC2)cc(C(C)(C)O)c1` .
[out] 1000 to 5000 nM

[in] Proceed to `CC(C)c1cc(C#N)cc(C(C)C)c1NC(=O)NS(=O)(=O)c1cc(Cl)cc(C(C)(C)O)c1`
[out] < 1000 nM

---

Molecular target: hNLRP3 (THP-1, IL-1β) (Homo sapiens)
Construct: THP-1 cells were purchased from the American Type Culture Collection; host or cells: THP-1 cells, PMA-differentiated, stimulated with gramicidin
Experiment: IL-1β production in PMA-differentiated THP-1 cells stimulated with gramicidin
Format: cell-based
Settings: Table 1, gramicidin 5 μM, IL-1β readout
Readings of IC50 for the listed molecules

In the examples that follow, each entry is paired with its recorded IC50.
item.smiles	IC50
CC(C)c1cc(F)cc(C(C)C)c1NC(=O)NS(=O)(=O)c1cc(Cl)cc(C(C)(C)O)c1	< 1 µM
CC(C)c1cc(C#N)cc(C(C)C)c1NC(=O)NS(=O)(=O)c1cc(F)cc(C(C)(C)O)c1	< 1 µM
CC(C)c1cc(F)cc(C(C)C)c1NC(=O)NS(=O)(=O)c1cc(F)cc(C(C)(C)O)c1	< 1 µM

--- query ---
[in] For the molecule `CC(C)c1cccc(C(C)C)c1NC(=O)NS(=O)(=O)c1cc(Cl)cc(C(C)(C)O)c1` , what IC50 is on record?
[out] < 1 µM

---

Biological target: hNLRP3 (THP-1, IL-1β) (Homo sapiens, UniProt Q96P20)
Construct: THP-1 cells were purchased from the American Type Culture Collection; host or cells: THP-1 cells, PMA-differentiated, stimulated with gramicidin
Assay: IL-1β production in PMA-differentiated THP-1 cells stimulated with gramicidin
Format: cell-based
Settings: Table 2, gramicidin 5 μM, IL-1β readout
pIC50: −log10 of the molar value.
measurement.label: pIC50

item.smiles	pIC50
CC(C)(O)c1cc(N2CCOCC2)cc(S(=O)(=O)NC(=O)Nc2c3c(cc4c2CCC4)CCC3)c1	> 6.00
CC(C)c1cc(Cl)cc(C(C)C)c1NC(=O)NS(=O)(=O)c1cc(C#N)cc(C(C)(C)O)c1	> 6.00
CC(C)c1cc(Cl)cc(C(C)C)c1NC(=O)NS(=O)(=O)c1cc(F)cc(C(C)(C)O)c1	5.30 to 6.00
CC(C)c1ccc(F)c(C(C)C)c1NC(=O)NS(=O)(=O)c1cc(C(C)(C)O)cc(C(C)(C)O)c1	5.30 to 6.00
CC(C)(O)c1ccc(S(=O)(=O)NC(=O)Nc2c3c(c(Cl)c4c2CCC4)CCC3)cc1	> 6.00
CC(C)c1ccc(F)c(C(C)C)c1NC(=O)NS(=O)(=O)c1cc(Cl)cc(C(C)(C)O)c1	> 6.00

[in] Can you share its pIC50? I mean this compound: `CC(C)c1ccc(F)c(C(C)C)c1NC(=O)NS(=O)(=O)c1cc(C#N)cc(C(C)(C)O)c1`
[out] 5.30 to 6.00
